B1: library; numbered along this chain (parent)
chain: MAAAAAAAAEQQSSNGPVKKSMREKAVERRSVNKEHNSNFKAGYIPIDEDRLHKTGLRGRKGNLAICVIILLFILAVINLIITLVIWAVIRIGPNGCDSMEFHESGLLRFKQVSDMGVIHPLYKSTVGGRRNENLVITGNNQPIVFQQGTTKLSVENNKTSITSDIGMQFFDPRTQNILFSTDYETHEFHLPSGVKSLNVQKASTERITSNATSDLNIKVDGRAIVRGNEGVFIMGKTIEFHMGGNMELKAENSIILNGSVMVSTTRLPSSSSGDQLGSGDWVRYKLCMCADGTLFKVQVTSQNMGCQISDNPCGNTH

Variants of: B1
Test: SGCB cell-surface expression functional score (HA stain, bin4 vs bin1, normalised to synonymous) (log10 ratio); higher = more cell-surface SGCB (functional)
readout-label: SGCB cell-surface expression functional score (log10)
One number for each entry.

Return reported SGCB cell-surface expression functional score (log10) values for all items listed beneath this line.
1. V89H
2. I225S
3. G228S
4. D281L
5. E252C

Found:
1. -1.8
2. 0.63
3. 0.43
4. 0.08
5. 0.5

Count: 2. Required value per item: SGCB cell-surface expression functional score (log10).
1. E24N
2. G245S

Found:
1: 0.02; 2: 0.78

Each variant below has a reported value. Please supply its SGCB cell-surface expression functional score (log10).
1. N158H
2. M1G

Found:
1. -0.2
2. 0.1
